Target: Mu-type opioid receptor (Homo sapiens, UniProt P35372)
Sequence (P35372 whole entry): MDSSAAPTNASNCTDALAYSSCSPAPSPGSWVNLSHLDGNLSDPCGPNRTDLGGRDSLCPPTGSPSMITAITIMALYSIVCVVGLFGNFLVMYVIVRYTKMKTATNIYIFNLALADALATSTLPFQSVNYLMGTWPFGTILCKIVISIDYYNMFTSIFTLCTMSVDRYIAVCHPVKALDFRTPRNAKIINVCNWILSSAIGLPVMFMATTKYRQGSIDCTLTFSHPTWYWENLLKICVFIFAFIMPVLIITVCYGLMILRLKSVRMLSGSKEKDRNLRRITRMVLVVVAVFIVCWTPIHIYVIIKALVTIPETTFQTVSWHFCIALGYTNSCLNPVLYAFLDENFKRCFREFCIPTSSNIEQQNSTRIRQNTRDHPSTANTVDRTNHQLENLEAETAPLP
Assay: Antagonist activity at human MOR expressed in CHO cell membranes assessed as inhibition of CYM51010-induced [35S]-GTPgammaS binding preincubated for 5 mins followed by CYM51010 and [35S]-GTPgammaS addition measured after 80 mins
Assay type: functional
Settings: cho
Measured endpoint: IC50

Query "N[C@@H](Cc1ccc(O)cc1)C(=O)N1Cc2ccccc2C[C@H]1C(=O)NCC(=O)NCC(=O)N[C@@H](CCCCNC(=O)CNC(=O)[C@@H](Cc1cccc2ccccc12)NC(=O)[C@H](Cc1ccccc1)NC(=O)[C@@H]1CCCN1C(=O)[C@@H](N)Cc1ccc(O)cc1)C(=O)O" on Mu-type opioid receptor (Homo sapiens, UniProt P35372); IC50 returned: > 1000 nM

---

Target: Delta-type opioid receptor (Homo sapiens)
Sequence (P41143 whole entry): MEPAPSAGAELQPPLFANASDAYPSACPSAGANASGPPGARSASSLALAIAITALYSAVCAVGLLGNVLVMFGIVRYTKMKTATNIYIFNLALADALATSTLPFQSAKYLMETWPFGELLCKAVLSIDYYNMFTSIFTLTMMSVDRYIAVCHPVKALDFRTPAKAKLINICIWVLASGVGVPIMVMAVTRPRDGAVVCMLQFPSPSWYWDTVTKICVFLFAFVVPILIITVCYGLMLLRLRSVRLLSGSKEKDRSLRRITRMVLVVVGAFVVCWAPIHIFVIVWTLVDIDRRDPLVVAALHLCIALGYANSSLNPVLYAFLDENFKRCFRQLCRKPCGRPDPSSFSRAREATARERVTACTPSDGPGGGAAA
Test: Antagonist activity at human DOR expressed in CHO cell membranes assessed as inhibition of CYM51010-induced [35S]-GTPgammaS binding preincubated for 5 mins followed by CYM51010 and [35S]-GTPgammaS addition measured after 80 mins
Assay type: functional
Conditions: cho
Measured endpoint: pIC50
Note: pIC50 values are expressed as the negative base-10 logarithm of concentration in M.

Please fill in: pIC50 reported for "N[C@@H](Cc1ccc(O)cc1)C(=O)N1Cc2ccccc2C[C@H]1C(=O)NCC(=O)NCCCCC(=O)N[C@@H](CCCCNC(=O)CNC(=O)[C@@H](Cc1cccc2ccccc12)NC(=O)[C@H](Cc1ccccc1)NC(=O)[C@@H]1CCCN1C(=O)[C@@H](N)Cc1ccc(O)cc1)C(=O)O" = 7.24

---

Target: Delta-type opioid receptor (Homo sapiens)
Assay: Displacement of [3H]-diprenorphine from human DOR expressed in CHO cell membranes after 80 mins by scintillation counting analysis
Where a SMILES comes first, the peptide text is derived from it. [ ]: non-standard residue; d: D form. ξ: configuration not given here. ξTic = O=C(O)C1Cc2ccccc2CN1
Measured endpoint: pKi
Lab note: report pKi as minus log10 of the concentration in molar units, number only.

pKi recorded for this compound, N[C@@H](Cc1ccc(O)cc1)C(=O)N1Cc2ccccc2CC1C(=O)O (stereo partly specified) (H-Tyr-[ξTic]-OH) , is 6.64

---

Target: Opioid receptors; mu & delta (Homo sapiens, UniProt P41143+P35372)
Sequence (P41143 whole entry, looked up, one chain of several): as the sequence (P41143 whole entry) above
Assay: Displacement of [3H]-diprenorphine from human mu-delta opioid receptor expressed in CHO cell membranes after 80 mins by scintillation counting analysis
Measured endpoint: KiH (nM)
Write it as a number; the unit nM goes unstated.

Previously resolved entries follow.
smiles_structure=N[C@@H](Cc1ccc(O)cc1)C(=O)N1Cc2ccccc2C[C@@H]1C(=O)NCC(=O)NCC(=O)NCCCCCC(=O)NCCC(=O)N[C@H](CCCCNC(=O)CCNC(=O)CCCCCNC(=O)CCNC(=O)CNC(=O)[C@@H](Cc1cccc2ccccc12)NC(=O)[C@H](Cc1ccccc1)NC(=O)[C@@H]1CCCN1C(=O)[C@@H](N)Cc1ccc(O)cc1)C(=O)O unit_of_measurement=nM numeric_readout=16
smiles_structure=N[C@@H](Cc1ccc(O)cc1)C(=O)N1Cc2ccccc2C[C@@H]1C(=O)NCC(=O)NCCCCC(=O)N[C@H](CCCCNC(=O)CNC(=O)[C@@H](Cc1cccc2ccccc12)NC(=O)[C@H](Cc1ccccc1)NC(=O)[C@@H]1CCCN1C(=O)[C@@H](N)Cc1ccc(O)cc1)C(=O)O unit_of_measurement=nM numeric_readout=2

The reported KiH of the compound "N[C@@H](Cc1ccc(O)cc1)C(=O)N1Cc2ccccc2C[C@@H]1C(=O)NCC(=O)NCCCCC(=O)N[C@H](CCCCNC(=O)CCCCNC(=O)CNC(=O)[C@@H](Cc1cccc2ccccc12)NC(=O)[C@H](Cc1ccccc1)NC(=O)[C@@H]1CCCN1C(=O)[C@@H](N)Cc1ccc(O)cc1)C(=O)O" was 0.63

Field KiH (entry "N[C@@H](Cc1ccc(O)cc1)C(=O)N1Cc2ccccc2C[C@@H]1C(=O)NCC(=O)NCC(=O)N[C@H](CCCCNC(=O)CNC(=O)[C@@H](Cc1cccc2ccccc12)NC(=O)[C@H](Cc1ccccc1)NC(=O)[C@@H]1CCCN1C(=O)[C@@H](N)Cc1ccc(O)cc1)C(=O)O" ) reads 2.5

# KiH (compound: "N[C@@H](Cc1ccc(O)cc1)C(=O)N1Cc2ccccc2C[C@@H]1C(=O)NCC(=O)NCCCC(=O)N[C@H](CCCCNC(=O)CCNC(=O)CNC(=O)[C@@H](Cc1cccc2ccccc12)NC(=O)[C@H](Cc1ccccc1)NC(=O)[C@@H]1CCCN1C(=O)[C@@H](N)Cc1ccc(O)cc1)C(=O)O" ) is 1.3

Form: compound = "N[C@@H](Cc1ccc(O)cc1)C(=O)N1Cc2ccccc2C[C@@H]1C(=O)NCC(=O)NCCC(=O)NCCCCCC(=O)N[C@H](CCCCNC(=O)CCCCCNC(=O)CNC(=O)[C@@H](Cc1cccc2ccccc12)NC(=O)[C@H](Cc1ccccc1)NC(=O)[C@@H]1CCCN1C(=O)[C@@H](N)Cc1ccc(O)cc1)C(=O)O" ; KiH = 8.1

---

Biological target: Opioid receptors; mu & delta (Homo sapiens, UniProt P41143+P35372)
Assay: Displacement of [3H]-diprenorphine from human mu-delta opioid receptor heterodimer expressed in CHO cell membranes at high site fraction after 80 mins by scintillation counting analysis relative to control
Measured endpoint: Imax
Reply with the number and its unit after it.

Per the reported Opioid receptors; mu & delta (Homo sapiens, UniProt P41143+P35372) data, "N[C@@H](Cc1ccc(O)cc1)C(=O)N1Cc2ccccc2C[C@@H]1C(=O)NCC(=O)NCCC(=O)NCCCCCC(=O)N[C@H](CCCCNC(=O)CCCCCNC(=O)CNC(=O)[C@@H](Cc1cccc2ccccc12)NC(=O)[C@H](Cc1ccccc1)NC(=O)[C@@H]1CCCN1C(=O)[C@@H](N)Cc1ccc(O)cc1)C(=O)O" has Imax of 15%

---

Biological target: Opioid receptors; mu & delta (Homo sapiens, UniProt P41143+P35372)
Assay: Antagonist activity at human mu-delta opioid receptor heterodimer expressed in CHO cell membranes assessed as inhibition of CYM51010-induced [35S]-GTPgammaS binding at high site fraction preincubated for 5 mins followed by CYM51010 and [35S]-GTPgammaS addition measured after 80 mins
Type: functional
Measured endpoint: IC50H (nM)
Give just the number in nM; leave the unit off.

compound=N[C@@H](Cc1ccc(O)cc1)C(=O)N1Cc2ccccc2C[C@@H]1C(=O)NCC(=O)NCCCCC(=O)N[C@H](CCCCNC(=O)CNC(=O)[C@@H](Cc1cccc2ccccc12)NC(=O)[C@H](Cc1ccccc1)NC(=O)[C@@H]1CCCN1C(=O)[C@@H](N)Cc1ccc(O)cc1)C(=O)O measured_endpoint=IC50H numeric_readout=2.1
compound=N[C@@H](Cc1ccc(O)cc1)C(=O)N1Cc2ccccc2C[C@@H]1C(=O)NCC(=O)NCC(=O)N[C@H](CCCCNC(=O)CNC(=O)[C@@H](Cc1cccc2ccccc12)NC(=O)[C@H](Cc1ccccc1)NC(=O)[C@@H]1CCCN1C(=O)[C@@H](N)Cc1ccc(O)cc1)C(=O)O measured_endpoint=IC50H numeric_readout=3.4

Please find the next compound below.
# IC50H (compound: "N[C@@H](Cc1ccc(O)cc1)C(=O)N1Cc2ccccc2C[C@@H]1C(=O)NCC(=O)NCC(=O)NCCCCCC(=O)NCCC(=O)N[C@H](CCCCNC(=O)CCNC(=O)CCCCCNC(=O)CCNC(=O)CNC(=O)[C@@H](Cc1cccc2ccccc12)NC(=O)[C@H](Cc1ccccc1)NC(=O)[C@@H]1CCCN1C(=O)[C@@H](N)Cc1ccc(O)cc1)C(=O)O" ) is 48

---

Biological target: Mu-type opioid receptor (Homo sapiens)
Assay: Antagonist activity at human MOR expressed in CHO cell membranes assessed as inhibition of CYM51010-induced [35S]-GTPgammaS binding preincubated for 5 mins followed by CYM51010 and [35S]-GTPgammaS addition measured after 80 mins
Type: functional
pIC50: −log10 of the molar value. Where a SMILES comes first, the peptide text is derived from it. [ ]: non-standard residue; d: D form. d2Nal = N[C@H](Cc1ccc2ccccc2c1)C(=O)O
Measured endpoint: pIC50

The recorded pIC50 for NC(=O)[C@@H](Cc1ccc2ccccc2c1)NC(=O)[C@H](Cc1ccccc1)NC(=O)[C@@H]1CCCN1C(=O)[C@@H](N)Cc1ccc(O)cc1 (H-YPF[d2Nal]-NH2) is < 6.00

---

Biological target: Mu-type opioid receptor (Homo sapiens, UniProt P35372)
Experiment: Displacement of [3H]-diprenorphine from human MOR expressed in CHO cell membranes after 80 mins by scintillation counting analysis
pKi: −log10 of the molar value. Where a SMILES comes first, the peptide text is derived from it. [ ]: non-standard residue; d: D form. d2Nal = N[C@H](Cc1ccc2ccccc2c1)C(=O)O
Measured endpoint: pKi

For this compound ( NC(=O)[C@@H](Cc1ccc2ccccc2c1)NC(=O)[C@H](Cc1ccccc1)NC(=O)[C@@H]1CCCN1C(=O)[C@@H](N)Cc1ccc(O)cc1 (H-YPF[d2Nal]-NH2) ), measured pKi is < 6.00
